- target.entity: Phosphotyrosine protein phosphatase (Mycobacterium tuberculosis)
- Sequence (A0A045ISB3 whole entry): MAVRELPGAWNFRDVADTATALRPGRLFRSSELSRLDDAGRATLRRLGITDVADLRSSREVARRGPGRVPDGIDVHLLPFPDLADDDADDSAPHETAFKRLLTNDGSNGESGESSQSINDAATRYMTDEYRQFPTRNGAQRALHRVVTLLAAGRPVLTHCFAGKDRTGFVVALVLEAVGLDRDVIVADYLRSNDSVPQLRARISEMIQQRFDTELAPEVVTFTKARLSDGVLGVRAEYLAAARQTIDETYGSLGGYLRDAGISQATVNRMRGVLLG
Listed next: entries and their corresponding pIC50.
Keep it numeric: pIC50 is minus log10 of the concentration in mol/L.

Consider the following illustrative entries.
>>> df
                         compound_structure  quantity_name  obs_value
0  O=S(=O)(Nc1ccc2oc(-c3ccccc3)nc2c1)c1ccc(Cl)c(C(F)(F)F)c1          pIC50       4.40
1  O=[N+]([O-])c1ccccc1S(=O)(=O)Nc1ccc(-c2nc3cc(NS(=O)(=O)c4ccccc4[N+](=O)[O-])ccc3o2)cc1          pIC50       5.00
2  NCc1ccc(S(=O)(=O)Nc2ccc(-c3nc4cc(NS(=O)(=O)c5ccc(Cl)s5)ccc4o3)cc2)cc1          pIC50       5.04
3  O=C(O)c1cccc(S(=O)(=O)Nc2ccc(-c3nc4cc(NS(=O)(=O)c5cccc(C(=O)O)c5)ccc4o3)cc2)c1          pIC50       5.00
4  O=S(=O)(Nc1ccc2oc(-c3ccccc3)nc2c1)c1ccc(F)c(C(F)(F)F)c1          pIC50       4.34

Query: Which pIC50 is reported for this compound? "CCc1ccc(S(=O)(=O)Nc2ccc3oc(-c4ccccc4)nc3c2)cc1"
Reply: 4.17

Query: Which pIC50 is reported for this compound? "COC(=O)c1cccc(S(=O)(=O)Nc2ccc(-c3nc4cc(NS(=O)(=O)c5cccc(C(=O)OC)c5)ccc4o3)cc2)c1"
Reply: 5.24

Query: Which pIC50 is reported for this compound? "N#Cc1ccc(S(=O)(=O)Nc2ccc(-c3nc4cc(NS(=O)(=O)c5ccc(C#N)cc5)ccc4o3)cc2)cc1"
Reply: 4.92

====

What follows is a record of IC50 for Phosphotyrosine protein phosphatase (Mycobacterium tuberculosis, UniProt A0A045ISB3).

In [3]: df
Out[3]:
                         compound_structure  quantity_name  obs_value
0  O=S(=O)(Nc1ccc(-c2nc3ccccc3o2)cc1)c1ccccc1C(F)(F)F           IC50      58 µM
1  O=S(=O)(Nc1ccc(-c2nc3cc(NS(=O)(=O)C(F)(F)F)ccc3o2)cc1)C(F)(F)F           IC50      42 µM
2       CS(=O)(=O)Nc1ccc(-c2nc3ccccc3o2)cc1           IC50   > 100 µM
3  O=S(=O)(Nc1ccc(-c2nc3cc(NS(=O)(=O)c4ccc(C(F)(F)F)cc4)ccc3o2)cc1)c1ccc(C(F)(F)F)cc1           IC50     2.8 µM
4  O=S(=O)(Nc1ccc2oc(-c3ccc(NS(=O)(=O)c4ccc(Cl)s4)cc3)nc2c1)c1ccc(F)c(C(F)(F)F)c1           IC50     5.7 µM
5  O=S(=O)(Nc1ccc2oc(-c3ccc(NS(=O)(=O)c4cccc5nonc45)cc3)nc2c1)c1ccc(Cl)s1           IC50     5.9 µM

The record that follows has no IC50 shown yet.
Query: Which IC50 is reported for this compound? "COC(=O)c1ccc(S(=O)(=O)Nc2ccc(-c3nc4cc(NS(=O)(=O)c5ccc(C(=O)OC)cc5)ccc4o3)cc2)cc1"
Reply: 11 µM

Value source: ChEMBL document CHEMBL4387722
